# TEST_SYSTEM: SpnFADS FMNAT activity (Streptococcus pneumoniae, UniProt A0A0H2UPY5)
# Sequence (A0A0H2UPY5 entry or part of it): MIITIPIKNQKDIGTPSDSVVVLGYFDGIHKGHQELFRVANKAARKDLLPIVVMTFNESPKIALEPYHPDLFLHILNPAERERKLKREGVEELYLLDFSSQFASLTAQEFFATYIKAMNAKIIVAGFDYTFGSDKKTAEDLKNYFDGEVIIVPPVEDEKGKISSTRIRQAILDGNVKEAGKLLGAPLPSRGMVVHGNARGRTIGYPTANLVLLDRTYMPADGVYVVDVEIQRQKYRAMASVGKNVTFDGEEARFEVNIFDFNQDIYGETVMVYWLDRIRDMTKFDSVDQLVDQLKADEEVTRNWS
# PROCEDURE_TEXT: biochemical
RECORDED_METRIC: IC50 (µM)
Quick note: give the figure in µM, leave out the unit.

GET /values?readout=IC50&item= Cc1cc2c(C(C)C)c(O)c(O)c(C=O)c2c(O)c1-c1c(C)cc2c(C(C)C)c(O)c(O)c(C=O)c2c1O
51

* * *

# TEST_SYSTEM: CaFADS (Corynebacterium ammoniagenes)
# Construct: Recombinant CaFADS was overexpressed in BL21 (DE3) E. coli cells and purified as previously described; made in house; host or cells: E. coli BL21 (DE3)
# Sequence (Q59263 whole entry): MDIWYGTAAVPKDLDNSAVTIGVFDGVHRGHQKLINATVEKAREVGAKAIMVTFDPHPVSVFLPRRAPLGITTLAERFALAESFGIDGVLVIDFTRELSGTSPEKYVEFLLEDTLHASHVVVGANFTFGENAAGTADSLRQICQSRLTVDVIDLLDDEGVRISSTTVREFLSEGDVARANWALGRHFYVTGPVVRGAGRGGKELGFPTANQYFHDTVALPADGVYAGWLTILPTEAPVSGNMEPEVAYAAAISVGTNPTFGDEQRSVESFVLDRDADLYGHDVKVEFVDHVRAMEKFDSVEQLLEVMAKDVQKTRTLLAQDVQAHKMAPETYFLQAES
# PROCEDURE_TEXT: Isothermal titration calorimetry (ITC) of hits binding to CaFADS
# CONDITION_NOTES: ITC 25 °C, 3% DMSO; for 24: Site 1–2; average value for two hit molecules where N ≈ 2; read-out: Kd
RECORDED_METRIC: Kd

For Cc1cc2c(C(C)C)c(O)c(O)c(C=O)c2c(O)c1-c1c(C)cc2c(C(C)C)c(O)c(O)c(C=O)c2c1O , what is its reported Kd?
700 nM
